# Test system: Human mast cells (CHMC)
# Test summary: LD Tryptase release assay in CHMC (mast cell activation induced by FcγR cross-linking)
# Type: cell-based
# Run parameters: Homo sapiens, Mast cell, anti-IgG stimulation, activity of tryptase released upon degranulation
# Experimental: Compounds were assayed for inhibition of mast cell activation induced by FcγR cross-linking by measuring the activity of tryptase released upon degranulation as follows: Human mast cells were cultured and differentiated from […] progenitor cell as described in U.S. Patent Publication No. 2005-234049, incorporated herein by reference. […]
pIC50: −log10 of the molar value.
// reported pIC50 per item
Readout name: pIC50

Compound: O=C1COc2ccc(Nc3nc(Nc4ccc(N5CCOCC5)nc4)ncc3F)nc2N1
Target: Human mast cells (CHMC)
Readout name: pIC50
Obs value: 6.30 to 7.00

Compound: Cc1cc(Nc2ncc(F)c(Nc3ccc4c(n3)NC(=O)C(C)(C)O4)n2)cnc1N1CCOCC1
Target: Human mast cells (CHMC)
Readout name: pIC50
Obs value: > 7.00

Compound: CC1(C)Oc2ccc(Nc3nc(Nc4ccc(N5CCC(C(N)=O)CC5)cc4)ncc3F)nc2NC1=O
Target: Human mast cells (CHMC)
Readout name: pIC50
Obs value: 6.30 to 7.00

Compound: CCOC1CCN(c2ccc(Nc3ncc(F)c(Nc4ccc5c(n4)NC(=O)C(C)(C)O5)n3)cc2)CC1
Target: Human mast cells (CHMC)
Readout name: pIC50
Obs value: 6.30 to 7.00

Compound: O=C1Nc2nc(Nc3nc(Nc4ccc(N5CCOCC5)cc4)ncc3F)ccc2OC12CCC2
Target: Human mast cells (CHMC)
Readout name: pIC50
Obs value: 6.30 to 7.00

Compound: CCO[C@H]1CCN(c2ccc(Nc3ncc(F)c(Nc4ccc5c(n4)NC(=O)C(C)(C)O5)n3)cn2)C1
Target: Human mast cells (CHMC)
Readout name: pIC50
Obs value: 6.30 to 7.00

Compound: CC1(C)Oc2ccc(Nc3nc(Nc4ccc(N5CCC(O)CC5)cc4)ncc3F)nc2NC1=O
Target: Human mast cells (CHMC)
Readout name: pIC50
Obs value: > 7.00

Compound: Cc1ccc(Nc2ncc(F)c(Nc3ccc4c(n3)NC(=O)C(C)(C)O4)n2)cn1
Target: Human mast cells (CHMC)
Readout name: pIC50
Obs value: 6.30 to 7.00

Compound: O=C1COc2ccc(Nc3nc(Nc4ccc(N5CCOCC5=O)cc4)ncc3F)nc2N1
Target: Human mast cells (CHMC)
Readout name: pIC50
Obs value: 6.30 to 7.00

Compound: CC1(C)Oc2ccc(Nc3nc(Nc4ccc(N5CCC(O)C5)nc4)ncc3F)nc2NC1=O (stereo in doubt)
Target: Human mast cells (CHMC)
Readout name: pIC50
Obs value: > 7.00

Compound: COc1cc(Nc2ncc(F)c(Nc3ccc4c(n3)NC(=O)C(C)(C)O4)n2)ccc1C1CCOCC1
Target: Human mast cells (CHMC)
Readout name: pIC50
Obs value: 6.30 to 7.00

Compound: CC1(C)Oc2ccc(Nc3nc(Nc4ccc(N5CCC6(CCOC6)CC5)cc4)ncc3F)nc2NC1=O
Target: Human mast cells (CHMC)
Readout name: pIC50
Obs value: 6.30 to 7.00

Compound: O=C1COc2ccc(Nc3nc(Nc4ccc(N5CCOCC5)c(F)c4)ncc3F)nc2N1
Target: Human mast cells (CHMC)
Readout name: pIC50
Obs value: > 7.00

Compound: C[C@@H]1CN(c2ccc(Nc3ncc(F)c(Nc4ccc5c(n4)NC(=O)CO5)n3)cn2)CCO1
Target: Human mast cells (CHMC)
Readout name: pIC50
Obs value: > 7.00

Compound: CC1(C)Oc2ccc(Nc3nc(Nc4ccc5ccncc5c4)ncc3F)nc2NC1=O
Target: Human mast cells (CHMC)
Readout name: pIC50
Obs value: > 7.00

Compound: CC1(C)Oc2ccc(Nc3nc(Nc4ccc5nc(-c6ccncc6)[nH]c5c4)ncc3F)nc2NC1=O
Target: Human mast cells (CHMC)
Readout name: pIC50
Obs value: > 7.00

###

// reported IC50 per item
# System: Human mast cells (CHMC)
# Test summary: LD Tryptase release assay in CHMC (mast cell activation induced by FcγR cross-linking)
# Assay type: cell-based
# Run parameters: Homo sapiens, Mast cell, anti-IgG stimulation, activity of tryptase released upon degranulation
Readout name: IC50

Compound: CC(C)Oc1cc(Nc2ncc(F)c(Nc3ccc4c(n3)NC(=O)C(C)(C)O4)n2)ccc1N1CCOCC1
Obs value: 1000 to 100000 nM

Compound: COC1CCN(c2ccc(Nc3ncc(F)c(Nc4ccc5c(n4)NC(=O)C(C)(C)O5)n3)cn2)C1 (stereo in doubt)
Obs value: 100 to 500 nM

Compound: C[C@H]1COCCN1c1ccc(Nc2ncc(F)c(Nc3ccc4c(n3)NC(=O)C(C)(C)O4)n2)cn1
Obs value: 100 to 500 nM

Compound: COc1cc(Nc2ncc(F)c(Nc3ccc4c(n3)NC(=O)C(C)(C)O4)n2)cnc1N1CCOCC1
Obs value: 100 to 500 nM

Compound: COC1CCN(c2ccc(Nc3ncc(F)c(Nc4ccc5c(n4)NC(=O)C(C)(C)O5)n3)cc2)CC1
Obs value: < 100 nM

Compound: CC1(C)Oc2ccc(Nc3nc(Nc4ccc(N5CCC(F)(F)CC5)c(F)c4)ncc3F)nc2NC1=O
Obs value: 1000 to 100000 nM

Compound: CC1(C)Oc2ccc(Nc3nc(Nc4ccc(N5CCCCC5)cc4)ncc3F)nc2NC1=O
Obs value: 1000 to 100000 nM

Compound: CC(C)OC1CCN(c2ccc(Nc3ncc(F)c(Nc4ccc5c(n4)NC(=O)C(C)(C)O5)n3)cc2)CC1
Obs value: 1000 to 100000 nM

Compound: CC1(C)Oc2ccc(Nc3nc(Nc4ccc(N5CCC(N6CCOCC6)C5)nc4)ncc3F)nc2NC1=O (stereo not shown)
Obs value: 100 to 500 nM

Compound: CN(C[C@H]1CCCO1)c1ccc(Nc2ncc(F)c(Nc3ccc4c(n3)NC(=O)CO4)n2)cn1
Obs value: 1000 to 100000 nM

Compound: CN(C)c1ccc(Nc2ncc(F)c(Nc3ccc4c(n3)NC(=O)C(C)(C)O4)n2)cn1
Obs value: 100 to 500 nM

Compound: CC1(C)CN(c2ncc(Nc3ncc(F)c(Nc4ccc5c(n4)NC(=O)CO5)n3)cc2F)CCO1
Obs value: 100 to 500 nM

Compound: C[C@@H]1COCCN1c1ccc(Nc2ncc(F)c(Nc3ccc4c(n3)NC(=O)C(C)(C)O4)n2)cn1
Obs value: < 100 nM

Compound: Cc1cc(Nc2ncc(F)c(Nc3ccc4c(n3)NC(=O)CO4)n2)cnc1N1CCOCC1
Obs value: < 100 nM

Compound: COCC1CCN(c2ccc(Nc3ncc(F)c(Nc4ccc5c(n4)NC(=O)C(C)(C)O5)n3)cc2)CC1
Obs value: 100 to 500 nM

Compound: CCCN1C(=O)COc2ccc(Nc3nc(Nc4ccc(N5CCOCC5)c(C(F)(F)F)c4)ncc3F)nc21
Obs value: < 100 nM

Compound: O=C1COc2ccc(Nc3nc(Nc4cnc(N5CCOCC5)c(F)c4)ncc3F)nc2N1
Obs value: 100 to 500 nM

Compound: COC1CCN(c2ccc(Nc3ncc(F)c(Nc4ccc5c(n4)NC(=O)C(C)(C)O5)n3)cn2)CC1
Obs value: 100 to 500 nM

Compound: CC1(C)Oc2ccc(Nc3nc(Nc4ccc(N5CCOCC5=O)cc4)ncc3F)nc2NC1=O
Obs value: 100 to 500 nM

Compound: C[C@@H]1COCCN1c1ccc(Nc2ncc(F)c(Nc3ccc4c(n3)NC(=O)CO4)n2)cn1
Obs value: < 100 nM

Compound: CC1(C)CN(c2ncc(Nc3ncc(F)c(Nc4ccc5c(n4)NC(=O)C(C)(C)O5)n3)cc2F)CCO1
Obs value: 1000 to 100000 nM

Compound: CCOC1CCN(c2ccc(Nc3ncc(F)c(Nc4ccc5c(n4)NC(=O)C(C)(C)O5)n3)cn2)CC1
Obs value: 1000 to 100000 nM

###

// reported IC50 per item
# System: Human mast cells (CHMC)
# Test summary: LD Tryptase release assay in CHMC (mast cell activation induced by FcγR cross-linking)
# Type: cell-based
# Run parameters: Homo sapiens, Mast cell, anti-IgG stimulation, activity of tryptase released upon degranulation
Readout name: IC50

Compound: C[C@H]1COCCN1c1ccc(Nc2ncc(F)c(Nc3ccc4c(n3)NC(=O)CO4)n2)cc1
Obs value: < 100 nM
//
Compound: CC1(C)Oc2ccc(Nc3nc(Nc4ccc(N5CCC6(CC5)COC6)cc4)ncc3F)nc2NC1=O
Obs value: 100 to 500 nM
//
Compound: CC1(C)Oc2ccc(Nc3nc(Nc4ccc(N5CCC(C(N)=O)C5)nc4)ncc3F)nc2NC1=O (centres unmarked)
Obs value: 500 to 1000 nM
//
Compound: CC1(C)Oc2ccc(Nc3nc(Nc4ccc(C5CCOCC5)cc4)ncc3F)nc2NC1=O
Obs value: 1000 to 100000 nM
//
Compound: [2H]C1([2H])OC([2H])([2H])C([2H])([2H])N(c2ccc(Nc3ncc(F)c(Nc4ccc5c(n4)NC(=O)CO5)n3)cn2)C1([2H])[2H]
Obs value: < 100 nM
